Measured IC50 of individual entries
# Test System: UniProtKB O54939
# Sequence (O54939 whole entry): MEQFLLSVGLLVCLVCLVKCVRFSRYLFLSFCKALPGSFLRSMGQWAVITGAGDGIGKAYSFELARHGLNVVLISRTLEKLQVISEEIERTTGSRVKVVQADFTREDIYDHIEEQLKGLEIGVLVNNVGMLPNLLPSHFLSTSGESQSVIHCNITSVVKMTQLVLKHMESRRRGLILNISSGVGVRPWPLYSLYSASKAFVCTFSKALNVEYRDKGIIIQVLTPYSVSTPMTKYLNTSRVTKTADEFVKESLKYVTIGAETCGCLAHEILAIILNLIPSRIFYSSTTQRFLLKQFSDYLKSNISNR
# Assay Summary: Inhibition of 17beta-HSD3 in Sprague-Dawley rat laydig cells
I only need the number, in nM, no unit after it.

Before answering, review these 3 worked examples.
[[record]]
compound = "O=C(/C=C/c1ccc(OC2CCCOC2)cc1)/C=C/c1ccc(OC2CCCOC2)cc1 (stereo not given)"
test_result = 1300

[[record]]
compound = "O=C(/C=C/c1ccc(F)cc1)/C=C/c1ccc(F)cc1"
test_result = 100

[[record]]
compound = "CCOc1ccc(/C=C/C(=O)/C=C/c2ccc(OCC)cc2)cc1"
test_result = 70


Let's switch to this compound now.
Per the record, COc1cc(/C=C/C(=O)CC(=O)/C=C/c2ccc(O)c(OC)c2)ccc1O [CURCUMIN] has IC50 of 9000
